TEST: Solubility (method not given)
Format: physicochemical
Can you tell me solubility for the items I'm about to list?

Request the reported solubility associated with C#CCN1CCN(c2cccc3[nH]c(-c4ccc(C(C)(C)C)cc4)nc23)CC1 [7b]
> 0.1 µM

Entry to check: CC(C)(C)c1ccc(-c2nc3c(N4CCN(CCF)CC4)cccc3[nH]2)cc1 [7a]
> 0.1 µM

###

MEASURED_TARGET: hGnRH receptors (Homo sapiens, UniProt P30968)
Construct: host or cells: HEK293T (division-arrested, stably expressing)
Sequence (P30968 1-328): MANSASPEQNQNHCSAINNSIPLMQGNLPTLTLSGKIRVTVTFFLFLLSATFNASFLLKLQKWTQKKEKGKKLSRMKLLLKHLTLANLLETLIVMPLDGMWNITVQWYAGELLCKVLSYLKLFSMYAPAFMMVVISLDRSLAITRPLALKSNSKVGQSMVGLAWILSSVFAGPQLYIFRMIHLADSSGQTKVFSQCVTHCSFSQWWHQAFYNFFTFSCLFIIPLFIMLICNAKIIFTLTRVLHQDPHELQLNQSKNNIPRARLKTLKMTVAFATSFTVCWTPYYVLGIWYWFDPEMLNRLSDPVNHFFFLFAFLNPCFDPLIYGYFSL
TEST: Functional cell assay (Ca2+ FLIPR): inhibition of receptor activation by LHRH/GnRH
Type: cell-based
TEST_PARAMETERS: calculated from mean IC50 using the Cheng–Prusoff equation; read-out: Ki (hGnRH)
READOUT_NAME: pKi
Please keep in mind that pKi is minus log10 of the molar concentration; only the number is needed.

Request the reported pKi associated with Cc1cn(C2CC(n3cc(CN4CCN(c5cccc6[nH]c(-c7ccc(C(C)(C)C)cc7)nc56)CC4)nn3)C(CO)O2)c(=O)[nH]c1=O (centres unmarked)
7.42

###

TEST: Thermodynamic solubility assay (Analiza, LC-QTOFMS)
Format: physicochemical
TEST_PARAMETERS: pH 1.2 (simulated gastric fluid), 24 hour incubation, ambient temperature
READOUT_NAME: solubility thermodynamic at 24 h (µg/mL)
Give just the number in µg/mL; leave the unit off.

Request the reported solubility thermodynamic at 24 h associated with Cc1cn(C2CC(n3cc(CN4CCN(c5cccc6[nH]c(-c7ccc(C(C)(C)C)cc7)nc56)CC4)nn3)C(CO)O2)c(=O)[nH]c1=O (centres unmarked) [8g]
1200

Entry to check: CC(C)(C)c1ccc(-c2nc3c(N4CCN(Cc5cn(CCF)nn5)CC4)cccc3[nH]2)cc1 [8a]
2100
